# Test system: UO-31 renal
# Measurement Notes: NCI-60 one-dose screen, 48 h
# Measurement Conditions: 10 µM unless noted
Compounds without any hit were thinned out: in the full panel of roughly 83,000, 20% have a hit. The source made the active and inactive calls. The calls were made as follows: active = growth percent below 10; inactive = the rest.
Output constraint: value belongs to 1 (yes) for active, 0 (no) for inactive

Compound	Qualitative Label
Cn1ncc(CC(=O)O)c1-n1nnc2cc(Cl)ccc2c1=O	0 (no)
C#Cc1ccc(NC(=O)Cc2ccc(/C=C/C(=O)c3nccn3C)cc2)cc1	0 (no)
Cn1cc(-c2csc(-c3cn(C)c4ccc(F)cc34)n2)c2cnccc21	1 (yes)
CC1(C)C2=C(C(=O)N1Cc1ccccc1)C(c1ccco1)N(C(=O)C1CCC1)CCN2 (stereo unspecified)	0 (no)
CN1C(=O)N(C)C2C1NN=c1s/c(=C\c3ccccc3F)c(=O)n12 (stereo unspecified)	0 (no)
Cc1ccccc1NC(=O)c1sc2nc3c(cc2c1N)CCCC3	0 (no)
O=c1oc2ccccc2cc1-c1nn(-c2ccccc2)cc1/C=N/Nc1nc(-c2ccccc2)c(N=Nc2ccccc2)s1	0 (no)
O=C1c2ccccc2C(=O)c2cc(Cn3c[n+](Cc4ccc5ccccc5c4)c4ccccc43)ccc21	0 (no)
CN(C)C(=S)NN=C(c1ccccn1)c1ccccn1	0 (no)
COc1ccc(S(=O)(=O)Oc2ccc(-c3sc4cc(OS(=O)(=O)c5ccc(OC)cc5)ccc4c3C(=O)c3ccc(OCCN4CCCCC4)cc3)cc2)cc1	0 (no)

Now let's try a different one.
Req: // return assay outcome for O=C(OCC(O)C(=O)NC12CC3CC(CC(C3)C1)C2)c1cccc(Br)c1 (stereo unspecified)
Resp: 0 (no)

---

This listing pairs molecules with measured growth.
# Tested on: U251 CNS
# Measurement Notes: NCI-60 one-dose screen, 48 h (100 = growth as untreated, 0 = no growth, -100 = all killed)
# Measurement Conditions: 10 µM unless noted
About 83,000 compounds went through this panel and 20% of them were active in at least one assay; those are over-represented in the sample as a whole.
Record the value in %, omitting the unit from your answer.

Req: Note growth for the molecule shown: `N#C/C(Sc1nc2sc3c(c2c(=O)n1Cc1ccccc1)CCCC3)=C1/SC=C(c2ccc(Cl)cc2)N1c1ccccc1`
Resp: 72.8

Req: Return value of growth for input `CN1CCN(Cn2nc(-c3cc(Cl)cc(Cl)c3Cl)oc2=S)CC1` , no commentary.
Resp: 97.5

Req: # return recorded growth for entry `C/C(=C(\c1ccc(OCCCN(C)C)cc1)c1ccc(OC(=O)Cc2ccccc2)cc1)c1ccc(Cl)cc1`
Resp: 55

Req: Determine its reported growth: Nc1nc(N)c2c(n1)NC(c1cccc(Nc3ccnc4cc(C(F)(F)F)ccc34)c1)CC(c1ccc(Cl)cc1)=N2 (stereo not given)
Resp: 36.7

Req: Specify growth for `CCOC(=O)/C(=C/c1ccc([N+](=O)[O-])cc1)C(=O)c1ccccc1` and stop.
Resp: 26

---

# Tested on: OVCAR-5 ovarian
# Measurement Notes: NCI-60 one-dose screen, 48 h (100 = growth as untreated, 0 = no growth, -100 = all killed)
# Measurement Conditions: 10 µM unless noted
This is part of a sample that, as a whole, favours compounds with a hit. Of some 83,000 tested, about 20% had one in any assay.
Listing of entries alongside the reported growth.
Hi! Could you send only the number? It should be in %, unit omitted.

Chemical Smiles	growth (%)
Cn1ccnc1C(=O)/C=C/c1ccc(C(=O)Nc2ccccc2F)cc1	18
C#CCOc1cccc(Nc2ncnc3c(NC(=O)CCl)cccc23)c1	67.6
CC(=O)c1c(/C=C/c2ccc(C)cc2)c2ccccc2[nH]c1=O	100
C=CN(C(=O)N1CCN(c2cc3c(cc2F)c(=O)c(C(=O)O)cn3C2CC2)CC1)c1nc(-c2ccc(C)cc2)cs1	38.5
CC(C)C(=O)Nc1ncc(C(=O)NCCN(Cc2ccccc2)C(=O)c2ccc(S(=O)(=O)Nc3ccccc3)cc2)s1	97.7

Let us examine a further case.
Req: Provide measured growth value, entry: `COc1cc2cc(Oc3ccc(NC(=O)Nc4ccc(Cl)c(Cl)c4)cc3)c(C)nc2cc1OCCN1CCCCC1`
Resp: 137

---

# Tested on: EKVX NSCLC
# Measurement Notes: NCI-60 one-dose screen, 48 h (100 = growth as untreated, 0 = no growth, -100 = all killed)
# Measurement Conditions: 10 µM unless noted
Compounds without any hit were thinned out: in the full panel of roughly 83,000, 20% have a hit.
Property: growth (%)
Express your answer in %, writing the number without its unit.

Example results:
Molecule	growth (%)
Cc1nn(C)c2ncnc(Nc3ccccc3Br)c12	60.6
CC(=O)c1ccc(Nc2nccc(-c3ccc(Cl)cc3)n2)cc1	99.2
COc1ccc(-c2cc(-c3ccc(Cl)cc3)c(C#N)c(=O)n2CCCCC(=O)NO)cc1	71.9
COc1ccccc1-c1nc2ccc3[nH]ncc3c2c2c1CCCC2	44.3
Cc1cc(=O)oc2cc(Oc3nc(-c4ccccc4)cn4c(-c5ccccc5)cnc34)ccc12	66.8

Req: Answer with the recorded growth for the molecule listed here: `O=c1cc(-c2nccc3c2[nH]c2ccccc23)c2cc(Cl)ccc2o1`
Resp: 62.1

Req: Output measured growth for this item: `COc1cc(/C=C/c2cc(/C=C/c3ccc(O)c(OC)c3)n(C(=O)Nc3ccc(C)cc3C)n2)ccc1O`
Resp: -14.7

Req: Using the record for O=C(OCC(O)C(=O)NC12CC3CC(CC(C3)C1)C2)c1cccc(Br)c1 (centres undefined) , state its measured growth.
Resp: 96.4

Req: Please report growth for the following molecule: `COc1ccc(CNc2c3ccccc3nc3ccccc23)cc1OC`
Resp: 15.2

Req: Consider the molecule CO[C@H]1/C=C/O[C@@]2(C)Oc3c(C)c(O)c4c(O)c(c5c(nc6cc(C)ccn65)c4c3C2=O)NC(=O)/C(C)=C\C=C\[C@H](C)[C@H](O)[C@@H](C)C(O)[C@@H](C)[C@H](OC(C)=O)[C@@H]1C (some centres undefined) . State its measured growth.
Resp: 101

---

# Test system: SNB-75 CNS
# Measurement Notes: NCI-60 one-dose screen, 48 h
# Measurement Conditions: 10 µM unless noted
Compounds without any hit were thinned out: in the full panel of roughly 83,000, 20% have a hit. Activity calls are given as the source filed them. How the source made its calls: active means growth percent below 10; inactive means the rest.
# valid calls are yes = active, no = inactive; nothing else

Example entries begin here.
Compound	Qualitative Label
Cn1nc(-c2ccc(Cl)cc2)nc2c(=O)n(C)c(=O)nc1-2	yes
O=C(CNc1ncco1)Nc1ccc(S(=O)(=O)c2ccc(NC(=O)CNc3ncco3)cc2)cc1	no
C#CCOc1ccc(C2=NN(C)C3N=C(Cl)c4ncn(C)c4N23)cc1OCC#C (configuration not stated)	no

Req: Lab log entry: Nc1ncnc2c1N=C(c1ccc([N+](=O)[O-])cc1)CC(c1ccc3c(c1)OCO3)N2 (configuration not stated) — outcome as called in the assay?
Resp: no

Req: Assay result, entry `O=C(Nc1ccc(Cl)cc1)C1=NCCCCN1` — outcome?
Resp: no

Req: Recorded test call requested for `C=C1C(=O)O[C@H]2[C@H]1CC/C(CNC(=O)/C=C/c1cc(OC)c(OC)c(OC)c1)=C\CC[C@@]1(C)O[C@@H]21`
Resp: no

Req: Tell me the recorded outcome of this test for `O=C(c1ccc(F)cc1)C1CCN(CCn2c(=O)[nH]c3ccccc3c2=O)CC1` .
Resp: no

Req: Just curious, what result did `O=C(/C=C\c1ccc(O)c(O)c1)c1ccccc1O` get here?
Resp: no

Req: Given `Clc1ccc2c(NCCCn3cnc4c(N5CCCC5)nc(Cl)nc43)ccnc2c1` , state the outcome it received in this test.
Resp: no

Req: What did the test return for `COc1ccc2c(c1)c(-c1nc(-c3cn(C)c4ccncc34)cs1)cn2C` ?
Resp: no

Req: What classification did `O=C(/C=C/c1cccc([N+](=O)[O-])c1)c1ccc(Nc2nc(Nc3ccc(F)cc3)nc(Nc3ccc(Cl)cc3)n2)cc1` end up with in this test?
Resp: no

Req: Kindly provide the recorded test outcome for the following compound: `CCCCN(CCC#N)C(N)=O`
Resp: no

---

# System: SNB-19 CNS
# Measurement Notes: NCI-60 one-dose screen, 48 h (100 = growth as untreated, 0 = no growth, -100 = all killed)
# Measurement Conditions: 10 µM unless noted
This is part of a sample that, as a whole, favours compounds with a hit. Of some 83,000 tested, about 20% had one in any assay.
Labelling field: enter Y if recorded growth is less than 90%. Enter N if it equals or exceeds that cut-off.

Here's what some known entries look like.
Molecule	Tested On	Qualitative Label
C=CC(=O)Nc1ccc2ncnc(Nc3cccc(NS(=O)(=O)CCC)c3Cl)c2c1	SNB-19 CNS	Y
C#CCOc1ccc(C2=NN(CCCC)C3N=C(Cl)c4ncn(CCCC)c4N23)cc1OCC#C (centres undefined)	SNB-19 CNS	N

Req: Find out if reported growth for `CCOC(=O)c1cc(C(=O)c2cc(OC)cc(OC)c2)n2ccccc12` is less than 90%
Resp: Y

Req: Strictly below 90%: is that where growth of `Cn1cc(-c2csc(-c3cn(CCO)c4ccc(F)cc34)n2)c2cccnc21` sits?
Resp: Y

Req: # strict comparison: is reported growth < 90%? input = `Cc1cc2c(C(C)C)c(O)c(O)c(/C=N/O)c2c(O)c1-c1c(C)cc2c(C(C)C)c(O)c(O)c(/C=N/O)c2c1O`
Resp: Y

Req: Threshold test, growth < 90%: `COc1ccc(C(=O)/C=C/c2ccc(Cl)cc2)cc1S(N)(=O)=O`
Resp: Y

Req: Is growth of `CCOC(=O)/C(=C\c1ccccc1Cl)P(=O)(OCC)OCC` strictly below 90%?
Resp: Y
